Biological target: T1, human isoleucine zipper-CD40L (IZ-hCD40L) (human, UniProt P29965 113-261)
T1 sequence: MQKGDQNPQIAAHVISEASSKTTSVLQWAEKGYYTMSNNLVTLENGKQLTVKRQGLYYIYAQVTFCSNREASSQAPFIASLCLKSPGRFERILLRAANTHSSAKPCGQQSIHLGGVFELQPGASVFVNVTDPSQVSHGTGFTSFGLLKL
Experiment: cell-based or functional assay
measuredMetric: hIZCD40L-driven Human B Cell Proliferation EC50 (nM)

// worked examples, hIZCD40L-driven Human B Cell Proliferation EC50 included
binder	unitAbbreviation	recordedMeasurement
BMS2h-572-630 (other) VH: EVQLLESGGGLVQPGGSLRLSCAASGFTFKWQLMGWVRQAPGKGLEWVSGIEGPGDVTYYADSVKGRFTISRDNSKNTLYLQMNSLRAEDTAVYYCVKVGKDAKSDYRGQGTLVTVSS	nM	103
BMS2h-572-610 (other) VH: EVQLLESGGGLVQPGGSLRLSCAASGFTFNWQLMGWVRQAPGKGLEWVSGIEGPGDVTYYADSVKGRFTISRDNSKNTLYLQMNSLRAEDTAVYYCVKVGKDSKSDYRGQGTLVTVSS	nM	109

I: BMS2h-492-4 (other) VL: DIQMTQSPSSLSASVGDRVTITCRASQAIEHNLEWYQQKPGKAPKLLIYDASMLQSGVPSRFSGRGSGTDFTLTISSLQPEDFATYYCQQYDAYPPTFGQGTKVEIKR
II: BMS2h-572-11 (other) VH: EVQLLESGGGLVQPGGSLRLSCAASGFTFNWQLMGWVRQAPGKGLEWVSGIEGPGDVTYYADSVKGRFTISRDNSKNTLYLQMNSLRAEDTAVYYCVKVGKESNSDYRGQGTQVTVSS
Select one: I or II . Criterion: greater recorded hIZCD40L-driven Human B Cell Proliferation EC50. Give the label of your selection.
I
(I: 1700 nM, II: 140 nM)
